Experiment: Inhibition of H+/K+ ATPase
measured.attribute: IC50 (µM)
Please reply with the bare figure in µM and do not write the unit itself.

I'd like to know its IC50. The compound in question is CCOC(=O)c1cnc(C[S+]([O-])c2nc3ccccc3[nH]2)nc1N(C)C (configuration not stated)
7.5

I'd like to know its IC50. The compound in question is COc1ccc2[nH]c([S+]([O-])Cc3ncc(C)c(OC)c3C)nc2c1 (configuration not stated)
5.8

====

Assay: Dissociation constant, pKa of the compound
Type: physicochemical
measured.attribute: pKa
I'd appreciate a reply containing only the number, no unit.

I'd like to know its pKa. The compound in question is Cc1c(OCC(F)(F)F)ccnc1C[S+]([O-])c1nc2ccccc2[nH]1 (centres undefined) [LANSOPRAZOLE]
4

I'd like to know its pKa. The compound in question is COc1ccc2nc([S@@+]([O-])Cc3ncc(C)c(OC)c3C)[nH]c2c1 [ESOMEPRAZOLE]
4

I'd like to know its pKa. The compound in question is COCCCOc1ccnc(C[S+]([O-])c2nc3ccccc3[nH]2)c1C (centres undefined) [RABEPRAZOLE]
5

I'd like to know its pKa. The compound in question is COc1ccnc(C[S+]([O-])c2nc3ccc(OC(F)F)cc3[nH]2)c1OC (centres undefined) [PANTOPRAZOLE]
4
